- Test system: AA1029
- assay_explanation: qHTS profiling for inhibitors of Plasmodium falciparum proliferation (AID 504749); also: nearly all actives have a fitted effect of over 60% in size
- setup_conditions: P. falciparum in erythrocytes, SYBR Green DNA, 72 h; series mostly up to 28.7 µM
Records with an inconclusive call do not appear. Active and inactive are the calls of the source. Calls follow the shape of the dose curve; as a rule, active = well fitted inhibition curve with a large enough effect; inconclusive = small, poorly fitted or top-dose-only effect; inactive = flat fitted curve, though single readings scatter.
Classes used: active, inactive

>>> assigned_class("CCCCOc1cc(C(=O)OCCN(CC)CC)ccc1N")
"inactive"
>>> assigned_class("O=C(O)c1ccccc1-c1ccc(C(F)(F)F)cc1")
"inactive"
>>> assigned_class("COc1cc2[nH]c(=O)[nH]c(=O)c2cc1OC")
"inactive"
>>> assigned_class("CCCc1c(OCCCCc2nn[nH]n2)ccc(C(C)=O)c1O")
"inactive"
>>> assigned_class("Nc1ccc(S(=O)(=O)NC(=O)c2ccccc2)cc1")
"inactive"
>>> assigned_class("NCCNCCNCCN")
"inactive"
>>> assigned_class("O=C(O)CC(O)C(=O)O (centres undefined)")
"inactive"
>>> assigned_class("O=C(O)c1ccccc1O")
"inactive"
>>> assigned_class("O=c1cc(CO)occ1O")
"inactive"
>>> assigned_class("Cc1cccc(C)c1NC(=O)CN(CC(=O)O)CC(=O)O")
"inactive"
>>> assigned_class("O=C(O)CN1C(=O)c2cccc3cccc(c23)C1=O")
"inactive"
>>> assigned_class("CCCCOC(=O)c1ccc(O)cc1")
"inactive"
>>> assigned_class("CC(C)(C)C(=O)NCCCC(=O)O")
"inactive"
>>> assigned_class("Cc1cc(CC(=O)O)n(C)c1C(=O)c1ccc(Cl)cc1")
"inactive"
>>> assigned_class("CC1=C(CC(=O)O)c2cc(F)ccc2/C1=C\\c1ccc(S(C)=O)cc1 (centres undefined)")
"inactive"
>>> assigned_class("O=C(O)[C@@H]1CSCN1")
"inactive"
>>> assigned_class("CC(O)COc1ccccc1 (centres undefined)")
"inactive"
>>> assigned_class("O=C1NS(=O)(=O)c2ccccc21")
"inactive"
>>> assigned_class("CCCCCCCCCCCCCCCCCCOCC(O)CO (centres undefined)")
"inactive"
>>> assigned_class("CC1(C)CO[C@@H](CC(=O)O)CN1")
"inactive"
>>> assigned_class("COc1cc(C(=O)N2CCOCC2)cc(OC)c1OC")
"inactive"
>>> assigned_class("CSc1ccc2c(c1)N(CCC1CCCCN1C)c1ccccc1S2 (centres undefined)")
"active"
>>> assigned_class("COc1ccc(S(=O)(=O)Nc2nnc(CC(C)C)s2)cc1")
"inactive"
>>> assigned_class("CCCCc1ncc(/C=C(\\Cc2cccs2)C(=O)O)n1Cc1ccc(C(=O)O)cc1")
"inactive"

###

- target_system: Cytochrome P450 2D6 (Homo sapiens)
- assay_explanation: Cytochrome P450 family 2 subfamily D member 6 (CYP2D6) small molecule antagonists: luciferase biochemical (cell-free) qHTS assay (AID 1645840); also: nearly all actives have a fitted effect of over 55% in size
- setup_conditions: P450-Glo CYP2D6 enzyme, luciferin luminescence, 1 h; series mostly up to 57.4 µM
Results filed as inconclusive are left out. Calls of active or inactive are those of the source. Calls follow the shape of the dose curve; as a rule, active = well fitted inhibition curve with a large enough effect in the repeat runs; inconclusive = weak or mixed curves; inactive = flat fitted curve, though single readings scatter.
Classes used: T = active, F = inactive

>>> assigned_class("CC/C=C(\\C(=O)N[C@@H]1C(=O)N2C(C(=O)OCOC(=O)C(C)(C)C)=C(COC(N)=O)CS[C@H]12)c1csc(N)n1")
"F"
>>> assigned_class("O=C1OC(OC(=O)c2cccnc2Nc2cccc(C(F)(F)F)c2)c2ccccc21 (configuration not stated)")
"F"
>>> assigned_class("COc1ccccc1O")
"F"
>>> assigned_class("NC(=O)NC(=O)Cc1ccccc1")
"F"
>>> assigned_class("CC(=O)CCC(=O)O")
"F"
>>> assigned_class("CN(C)CCN(Cc1ccccc1)c1ccccn1")
"T"
>>> assigned_class("C[C@]12CC[C@@H]3c4ccc(O)cc4CC[C@H]3[C@@H]1CC[C@@H]2OC(=O)CCC1CCCC1")
"F"
>>> assigned_class("COc1ccc2cc1Oc1ccc(cc1)C[C@H]1c3c(cc4c(c3Oc3cc5c(cc3OC)CCN(C)[C@@H]5C2)OCO4)CCN1C")
"T"
>>> assigned_class("O=C1O[C@H]([C@@H](O)CO)C(O)=C1O")
"F"
>>> assigned_class("COc1cc(C)c(Cc2cnc(N)nc2N)cc1OC")
"F"
>>> assigned_class("NC(=O)c1ncn([C@@H]2O[C@H](CO)[C@@H](O)[C@H]2O)n1")
"F"
>>> assigned_class("Cc1cc2c(cc1S(N)(=O)=O)S(=O)(=O)CCC2")
"F"
>>> assigned_class("CC(=O)c1ccc2c(c1)N(CCCN(C)C)c1ccccc1S2")
"T"
>>> assigned_class("O=c1cc[nH]c(=O)[nH]1")
"F"
>>> assigned_class("CNCCCC1c2ccccc2C=Cc2ccccc21")
"T"
>>> assigned_class("C[C@H]1O[C@H](O[C@H]2[C@H](O)[C@@H](O)[C@@H](O[C@H]3[C@H](O)[C@@H](O)[C@H](O)O[C@@H]3CO)O[C@@H]2CO)[C@H](O)[C@@H](O)[C@@H]1N[C@H]1C=C(CO)[C@@H](O)[C@H](O)[C@H]1O")
"F"
>>> assigned_class("CC(=O)Oc1ccc(C2(c3ccc(OC(C)=O)cc3)C(=O)Nc3ccccc32)cc1")
"F"
>>> assigned_class("Cc1cccc(C)c1NC(=O)CN(CC(=O)O)CC(=O)O")
"F"
>>> assigned_class("[Cl][In]([Cl])[Cl]")
"F"
>>> assigned_class("O=c1cc[nH]c(=S)[nH]1")
"F"
>>> assigned_class("Nc1ccc(S(=O)(=O)Nc2ccccc2)cc1")
"F"
>>> assigned_class("NC1[C@H]2CN(c3nc4c(cc3F)c(=O)c(C(=O)O)cn4-c3ccc(F)cc3F)C[C@@H]12 (some centres not stated)")
"F"
>>> assigned_class("C[C@@H]1CCN(C(=O)[C@H](CCCN=C(N)N)NS(=O)(=O)c2cccc3c2NC[C@H](C)C3)[C@@H](C(=O)O)C1")
"F"
>>> assigned_class("O=C1N=C(O)CN1/N=C/c1ccc(-c2ccc([N+](=O)[O-])cc2)o1")
"F"
>>> assigned_class("Cc1c(O)cccc1C(=O)N[C@@H](CSc1ccccc1)[C@H](O)CN1C[C@H]2CCCC[C@H]2C[C@H]1C(=O)NC(C)(C)C")
"T"
>>> assigned_class("CC1(C)Oc2ccc(C#N)cc2[C@@H](N2CCCC2=O)[C@@H]1O")
"F"
>>> assigned_class("O=C(O)[C@H](O)c1ccccc1")
"F"
>>> assigned_class("C[C@H](N)[C@H](O)c1cccc(O)c1")
"F"
>>> assigned_class("CC12CCC(CC1)C(C)(C)O2")
"F"
>>> assigned_class("CC1CC(OC(=O)C(O)c2ccccc2)CC(C)(C)N1C (configuration not stated)")
"F"
>>> assigned_class("NC(=O)c1ncn([C@@H]2O[C@H](CO)[C@@H](O)[C@H]2O)c1N")
"F"
>>> assigned_class("CC(CN1c2ccccc2Sc2ccccc21)N(C)C (configuration not stated)")
"T"
>>> assigned_class("COc1ccc2cc1Oc1cc3c(cc1OC)CC[N+](C)(C)[C@H]3Cc1ccc(cc1)Oc1c(OC)c(OC)cc3c1[C@@H](C2)[N+](C)(C)CC3")
"F"
>>> assigned_class("NC(=O)N/N=C/c1ccc([N+](=O)[O-])o1")
"T"
>>> assigned_class("O=C1NS(=O)(=O)c2ccccc21")
"F"
>>> assigned_class("CNC(=O)Oc1ccc2c(c1)[C@]1(C)CCN(C)[C@@H]1N2C")
"T"
>>> assigned_class("COc1cc(C(=O)N2CCOCC2)cc(OC)c1OC")
"F"

###

- assay_explanation: qHTS for differential inhibitors of proliferation of Plasmodium falciparum line D10 (AID 1877);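 also: parasites grown with compound for 72 h before DNA staining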
- setup_conditions: series mostly up to 28.7 µM
Records with an inconclusive call do not appear. Calls of active or inactive are those of the source. Calls come from the whole dose curve; as a rule, active = well fitted curve in the direction sought with a large enough effect; inconclusive = small, poorly fitted or top-dose-only effect, or another doubt; inactive = no such curve, though single readings can be large or run the other way.
Classes used: True for active, False for inactive

>>> assigned_class("CC(=O)OCC(=O)[C@@]1(O)CC[C@H]2[C@@H]3CCC4=CC(=O)CC[C@]4(C)[C@H]3C(=O)C[C@@]21C")
"False"
>>> assigned_class("C#CCN(C)Cc1ccccc1")
"False"
>>> assigned_class("CNCCCC1c2ccccc2C=Cc2ccccc21")
"True"
>>> assigned_class("CCCCCCCCCCCCCCCC(=O)NCCO")
"False"
>>> assigned_class("CSc1ccc2c(c1)N(CCC1CCCCN1C)c1ccccc1S2 (stereo not given)")
"True"
>>> assigned_class("CC1=C(CC(=O)O)c2cc(F)ccc2/C1=C\\c1ccc(S(C)=O)cc1 (stereo not given)")
"False"
>>> assigned_class("CC(C)(C(=O)O)c1ccc(C(O)CCCN2CCC(C(O)(c3ccccc3)c3ccccc3)CC2)cc1 (stereo not given)")
"False"
>>> assigned_class("CCN(CC)CCOC(=O)C1(C2CCCCC2)CCCCC1")
"True"
>>> assigned_class("CC(C)(C)c1onc(OCP(=O)(O)O)c1CC(N)C(=O)O (stereo not given)")
"False"
>>> assigned_class("NC(=O)c1ncn([C@@H]2O[C@H](CO)[C@@H](O)[C@H]2O)n1")
"False"
